# Target Entity: NEP (Rattus norvegicus, UniProt P07861)
# Construct: male SD strain rats of 7 weeks age (Nippon Charles River; body weight: ca. 250 g) were used; from tissue; host or cells: whole animal: male SD rats (Nippon Charles River), in vivo
# Sequence (P07861 1-750): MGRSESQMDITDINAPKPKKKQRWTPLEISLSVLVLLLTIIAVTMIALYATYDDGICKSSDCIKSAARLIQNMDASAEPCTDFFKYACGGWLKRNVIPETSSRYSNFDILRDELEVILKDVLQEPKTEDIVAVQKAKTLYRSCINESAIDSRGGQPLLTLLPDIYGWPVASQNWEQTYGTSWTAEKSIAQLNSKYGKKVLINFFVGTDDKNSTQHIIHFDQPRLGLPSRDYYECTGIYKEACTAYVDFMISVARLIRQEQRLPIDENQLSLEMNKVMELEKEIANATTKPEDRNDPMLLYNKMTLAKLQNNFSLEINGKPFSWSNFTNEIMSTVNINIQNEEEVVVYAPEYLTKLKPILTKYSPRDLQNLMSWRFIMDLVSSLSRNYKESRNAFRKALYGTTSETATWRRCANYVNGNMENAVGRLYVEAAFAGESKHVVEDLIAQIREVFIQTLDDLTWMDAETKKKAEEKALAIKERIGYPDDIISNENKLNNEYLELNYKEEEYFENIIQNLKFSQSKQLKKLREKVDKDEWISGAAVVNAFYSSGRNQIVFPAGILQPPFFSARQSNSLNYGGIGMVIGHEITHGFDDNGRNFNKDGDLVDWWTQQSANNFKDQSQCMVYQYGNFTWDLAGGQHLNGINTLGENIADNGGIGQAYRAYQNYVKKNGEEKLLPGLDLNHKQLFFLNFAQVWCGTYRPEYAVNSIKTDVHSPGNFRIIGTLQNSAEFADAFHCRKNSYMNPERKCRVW
# Measurement Notes: NEP resistance in vivo: influence of NEP inhibitor on pharmacokinetic parameters after intravenous administration
# Details: male, SD, rat, in vivo, iv, 0.02 mg/kg, NEP Inhibitor (+), intravenous 0.02 mg/kg, male rats, N = 3; read-out: C0
Outcome Measure: C0 (ng/mL)
Supply the numeric figure in ng/mL, leaving out any unit text.

Query: For CC[C@H](C)[C@@H]1NC(=O)[C@H](CCCNC(=N)N)NC(=O)[C@H](CC(=O)O)NC(=O)[C@H](CC(C)C)NC(=O)[C@H](CCCCN)NC(=O)[C@H](CC(C)C)NC(=O)CNC(=O)[C@H](Cc2ccccc2)NC(=O)[C@@H](NC(=O)CNC(=O)[C@H](CCCCN)NC(=O)[C@H](CO)NC(=O)[C@H](CC(C)C)NC(=O)CN)CSSC[C@@H](C(=O)O)NC(=O)CNC(=O)[C@H](CC(C)C)NC(=O)CNC(=O)[C@H](CO)NC(=O)[C@H](CCSC)NC(=O)[C@H](CO)NC(=O)CNC1=O [Native CNP-22] , write its C0.
Result: 131
